Test system: fungal mating GPCRs (Ste2-like, xy.Ste2) expressed in S. cerevisiae strain JTy014
Format: cell-based, Ascomycete species of the code; expressed in S. cerevisiae
setup conditions: four-parameter fit of the dose-response curve (dynamic range); GPCR of the same code
Threshold 0.7: Hill Slope strictly smaller gives met, otherwise not met.

Check out these entries, answers already filled in.
# substance, class
records = [
    ("WCGHIGQGC [Pr, mature mating peptide ligand 1, Penicillium chrysogenum]", "met"),
    ("KPHWTTYGYYEPQ [Cp, mature mating peptide ligand 1, Candida parapsilosis]", "not met"),
    ("WCYRIGEPCW [Hj, mature mating peptide ligand 1, Hypocrea jecorina]", "met"),
    ("QWCR---IHGQSCW [Nc, mature mating peptide ligand 1, Neurospora crassa]", "met"),
    ("WCMRPGQPCW [Bb, mature mating peptide ligand 1, Beauvaria bassiana]", "not met"),
]

Lab note: Hill Slope threshold 0.7. Does this substance come in strictly under it? WCTRPGQGC [Pb, mature mating peptide ligand 1, Paracoccidioides brasiliensis]
met

Where do these numbers come from? They come from paper PMC6265332.
